B1: mRNA-splicing (parent)
chain: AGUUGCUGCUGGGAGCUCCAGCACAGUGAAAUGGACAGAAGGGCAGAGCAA

Variants of: B1
protocol.summary: exon inclusion enrichment index; higher = more inclusion; WT1 exon 5 minigene, HEK293
Entries and their exon inclusion enrichment index values follow.
parameter: exon inclusion enrichment index

> print(dat)
                            sequence.content                        parameter  measured.value
 1  AGUCAACACAGGGAGCUCCAGCACAGUGAAAUGGACAGAAGGGCAGAGCAA [U4C G5A C6A U7C G8A U10A]  exon inclusion enrichment index           0.437
 2  AGUUGACGACGGGAGCUCCAGCACAGUGAAAUGGACAGAAGCCCAGAGCAA [C6A U7C C9A U10C G42C G43C]  exon inclusion enrichment index             3.4
 3  AGUUUCUUUUGGGGGCUCCAGCACAGUGAAAUGGACAGAAGGGCAGAGCAA [G5U G8U C9U A14G]  exon inclusion enrichment index          0.0707
 4  AGUUAUAUAUGGGAGCUCCAGCACAGUGAAAUGCGCAGAAGGGCAGAGCAA [G5A C6U U7A G8U C9A G34C A35G]  exon inclusion enrichment index          0.0452
 5  AGUUAUAUAUGGGAGCUCCAGCACAGUGAAAUGGACAGAAGGGCCCAGCAA [G5A C6U U7A G8U C9A A45C G46C]  exon inclusion enrichment index          0.0306
 6  AGUUAGGGAUGGGAGCUCCAGCACAGUGAAAUGGACCGAAGGGCAGAGCAA [G5A C6G U7G C9A A37C]  exon inclusion enrichment index         0.00434
 7  AGUUACCACCGGGAGCUCCAUGACAGUGAAAUGGACAGAAGGGCAGAGCAA [G5A U7C G8A U10C G21U C22G]  exon inclusion enrichment index            2.27
 8  AGUUAUAUAUGGGAGCUCCAGCACAGUGAAAUGGACAGAAGGACAGAGCAA [G5A C6U U7A G8U C9A G43A]  exon inclusion enrichment index           0.454
 9  AGUUGACGACGGGAGCUCCAGCACAGUGAAAUGGACAGAAGGGCAGUUCAA [C6A U7C C9A U10C A47U G48U]  exon inclusion enrichment index             2.6
10  AGUUGACGACGGGAGCUCCAGCACAAAGAAAUGGACAGAAGGGCAGAGCAA [C6A U7C C9A U10C G26A U27A]  exon inclusion enrichment index            2.91
11  AGUUAGGCCUGGGAGCUCCAGCACAGUGAAAUGGACAGAAGGGCAGAGCAA [G5A C6G U7G G8C]  exon inclusion enrichment index         0.00742
12  AGUGAAAGAAGGGAGCUCCAGCACAGUGAAAUGGACAGAAGGGCAGAGCAA [U4G G5A C6A U7A C9A U10A]  exon inclusion enrichment index           0.315
13  AGUUGCUGCUGGGAGCUCCAGCACAGUGAAAUAGACAGAAGGGCAGAGCAA [G33A]  exon inclusion enrichment index          0.0129
14  AGUUGAAGAAGGGAGCUCCAGCACAGUGAAAGAGACAGAAGGGCAGAGCAA [C6A U7A C9A U10A U32G G33A]  exon inclusion enrichment index            0.11
15  AGUUUGUUUUGGGAGCUCCAGCACAGUGAAAUGGACAGAAGGGCAGAGCAA [G5U C6G G8U C9U]  exon inclusion enrichment index          0.0807
16  AGUUGACGACGGGAGCUCCACGACAGUGAAAUGGACAGAAGGGCAGAGCAA [C6A U7C C9A U10C G21C C22G]  exon inclusion enrichment index            3.98
17  AGUUAUAUAUGGGAGCUCCAGCACAGUGAAAUGCCCAGAAGGGCAGAGCAA [G5A C6U U7A G8U C9A G34C A35C]  exon inclusion enrichment index         0.00243
18  AGUUAGGGAUGGGAGCUCCAGCACAGUGAAAUGGACAGAAGGCCAGAGCAA [G5A C6G U7G C9A G43C]  exon inclusion enrichment index         0.00197
19  AGUUGAAGAAGGGAGCUCCAGCACAGUGAAAUGGACAGAUUGGCAGAGCAA [C6A U7A C9A U10A A40U G41U]  exon inclusion enrichment index           0.373
20  AGUUUCUUUUGGGAGCUAUAGCACAGUGAAAUGGACAGAAGGGCAGAGCAA [G5U G8U C9U C18A C19U]  exon inclusion enrichment index          0.0019
21  AGUUGACGACGGGAGCUCCAGCACAGUGAAAUGCCCAGAAGGGCAGAGCAA [C6A U7C C9A U10C G34C A35C]  exon inclusion enrichment index           0.445
22  AGUUAGGGAUGGGAGCUCCAGCACAGUGCUAUGGACAGAAGGGCAGAGCAA [G5A C6G U7G C9A A29C A30U]  exon inclusion enrichment index         0.00149
23  AGUUGCUCUCGGGAGCUCCAGCACAGUGAAAUGGACAGAAGGGCAGAGCAA [G8C C9U U10C]  exon inclusion enrichment index           0.579
24  AGUUAGGGAUGGGAGCUCCAGCACAGUGAAAUGGACAGAACUGCAGAGCAA [G5A C6G U7G C9A G41C G42U]  exon inclusion enrichment index          0.0271
25  AGUUCUUCUCGGGAGCUCCAGGCCAGUGAAAUGGACAGAAGGGCAGAGCAA [G5C C6U G8C C9U U10C C22G A23C]  exon inclusion enrichment index           0.747
26  AGUUCACACAGGGAGCUCCAGCACAGUGAAAUGGCAAGAAGGGCAGAGCAA [G5C C6A U7C G8A U10A A35C C36A]  exon inclusion enrichment index          0.0377
27  AGUUCACACAGGCUGCUCCAGCACAGUGAAAUGGACAGAAGGGCAGAGCAA [G5C C6A U7C G8A U10A G13C A14U]  exon inclusion enrichment index           0.136
28  AGUUUCUUUUGGGAGCUCCAGCACAGUGAAAUGGACAGAAGCACAGAGCAA [G5U G8U C9U G42C G43A]  exon inclusion enrichment index           0.494
29  AGUUGACGACGGGAGCUCCAGCACAGUGAAAUGGACAGUAGGGCAGAGCAA [C6A U7C C9A U10C A39U]  exon inclusion enrichment index           0.343
30  AGUUCACACAGGGAGCUCCGUCACAGUGAAAUGGACAGAAGGGCAGAGCAA [G5C C6A U7C G8A U10A A20G G21U]  exon inclusion enrichment index           0.177
31  AGUUCACACAGGGAGCUCCAGCACAGUGAAAUGGACAGAAGGGCAGGGCAA [G5C C6A U7C G8A U10A A47G]  exon inclusion enrichment index          0.0221
32  AGUUGCUGCUAGGAGCUCCAGCACAGUGAAAUGGACAGAAGGGCAGAGCAA [G11A]  exon inclusion enrichment index           0.618
33  AGUUCACACAGGGAGCUCCAUUACAGUGAAAUGGACAGAAGGGCAGAGCAA [G5C C6A U7C G8A U10A G21U C22U]  exon inclusion enrichment index           0.011
34  AGUUAGGGAUGGGAGCUCCAGCACAGUGAAAUGGACAUUAGGGCAGAGCAA [G5A C6G U7G C9A G38U A39U]  exon inclusion enrichment index        0.000926
35  AGUUCACACAGGGAGCUCCAGCACAGUGAAAUGGACAGAAGCGCAGAGCAA [G5C C6A U7C G8A U10A G42C]  exon inclusion enrichment index           0.501
36  AGUUGAAGAAGGGAGCUCCAGCACAGUGAAAUCAACAGAAGGGCAGAGCAA [C6A U7A C9A U10A G33C G34A]  exon inclusion enrichment index           0.421
37  AGUUCUCGCCGGGAGCUCCAGCACAGUGAAAUGGACAGAAGGGCAGAGCAA [G5C C6U U7C U10C]  exon inclusion enrichment index            3.59
38  AGUUAUAUAUGGGAGUACCAGCACAGUGAAAUGGACAGAAGGGCAGAGCAA [G5A C6U U7A G8U C9A C16U U17A]  exon inclusion enrichment index          0.0252
39  AGUUGCUGCUGGGAGCAACAGCACAGUGAAAUGGACAGAAGGGCAGAGCAA [U17A C18A]  exon inclusion enrichment index           0.314
40  AGUUUCUUUUGAUAGCUCCAGCACAGUGAAAUGGACAGAAGGGCAGAGCAA [G5U G8U C9U G12A G13U]  exon inclusion enrichment index        0.000463
41  AGUUGACGACGGGAGCUCCAGCACAGUGAAAUGGGUAGAAGGGCAGAGCAA [C6A U7C C9A U10C A35G C36U]  exon inclusion enrichment index           0.107
42  AGUUCACACAGGGAGCUCCAGCACAGUGAAAUUCACAGAAGGGCAGAGCAA [G5C C6A U7C G8A U10A G33U G34C]  exon inclusion enrichment index         0.00585
43  AAAUCACACAGGGAGCUCCAGCACAGUGAAAUGGACAGAAGGGCAGAGCAA [G2A U3A G5C C6A U7C G8A U10A]  exon inclusion enrichment index          0.0895
44  AGUUUCUUUUGGGAGCUCCAGCACAGUGAAAUGGACAGAAGGGCAGUGCAA [G5U G8U C9U A47U]  exon inclusion enrichment index           0.115
45  AGUUUCUUUUGGGAGCUCCAGCACAGUACAAUGGACAGAAGGGCAGAGCAA [G5U G8U C9U G28A A29C]  exon inclusion enrichment index          0.0709
46  AGUUCUUCGGGGGAGCUCCAGCACAGUGAAAUGGACAGAAGGGCAGAGCAA [G5C C6U G8C C9G U10G]  exon inclusion enrichment index            3.42
